tested on: LNCaP tumor-transplanted mouse; assay: Internal radioactivity distribution using LNCaP tumor-transplanted mouse; assay type: in vivo; conditions: 48 h after administration
propertyLabel: Intestine
Answer shape: numeric part, then the unit.

compound	Intestine
O=C([O-])CN(CCN(CCc1ccc(NC(=O)CCCCCNC(=O)CCC(=O)NCCCC[C@H](NC(=O)N[C@@H](CCC(=O)O)C(=O)O)C(=O)O)cc1)CCN(CC(=O)[O-])Cc1cccc(C(=O)[O-])n1)Cc1cccc(C(=O)[O-])n1.[111In+3] [[^111In]In-Neunpa-1, reference compound]	0.32 ± 0.06 % ID/g

# next compound below
q: Using the record for O=C([O-])CN1CCN(C(CCC(=O)NCCC(=O)N2Cc3ccccc3-c3c(nnn3CCOCCOCCOCCOCCC(=O)NCCCC[C@H](NC(=O)N[C@@H](CCC(=O)O)C(=O)O)C(=O)O)-c3ccccc32)C(=O)[O-])CCN(CC(=O)[O-])CCN(C(CCC(=O)N[C@@H](CCCCNC(=O)CCCc2ccc(I)cc2)C(=O)O)C(=O)[O-])CC1.[111In+3] (some centres unmarked) [[^111In]In-PtDA] , report its Intestine.
a: 0.74 ± 0.28 % ID/g

###

test system: LNCaP tumor-transplanted mouse; test: Internal radioactivity distribution using LNCaP tumor-transplanted mouse; assay type: in vivo; conditions: 1 h after administration
propertyLabel: Brain (% ID/g)
Give bare numbers, in % ID/g.

compound	Brain [% ID/g]
O=C([O-])CN1CCN(C(CCC(=O)NCCCC[C@H](NC(=O)N[C@@H](CCC(=O)O)C(=O)O)C(=O)O)C(=O)[O-])CCN(CC(=O)[O-])CCN(C(CCC(=O)Nc2ccccc2)C(=O)[O-])CC1.[111In+3] (some centres unmarked) [[^111In]In-PSMA-DB, reference compound]	0.06

Consider the record given below.
q: Given O=C([O-])CN(CCN(CCc1ccc(NC(=O)CCCCCNC(=O)CCC(=O)NCCCC[C@H](NC(=O)N[C@@H](CCC(=O)O)C(=O)O)C(=O)O)cc1)CCN(CC(=O)[O-])Cc1cccc(C(=O)[O-])n1)Cc1cccc(C(=O)[O-])n1.[111In+3] [[^111In]In-Neunpa-1, reference compound] , state its recorded Brain.
a: 0.05

###

Tested on: LNCaP tumor-transplanted mouse
Assay: Internal radioactivity distribution using LNCaP tumor-transplanted mouse
Type: in vivo
Details: 192 h after administration
Description: The animal test was performed in compliance with the guidelines of Kyoto University Animal Experiment Committee. […] LNCaP or PC-3 tumor-implanted mice were administered saline solutions (185 kBq, 100 μL) of [^111In]In-PSMA-DA1 or [^111In]In-PSMA-DB from the tail vein (n=3 each). […] Thereafter, blood and each organ were recovered, and the mass and radioactivity of the organs were measured. […]
propertyLabel: Stomach (% ID)
Numbers only, in % ID.

compound	unitTag	Stomach (% ID)
O=C([O-])CN1CCN(C(CCC(=O)NCCCC[C@H](NC(=O)N[C@@H](CCC(=O)O)C(=O)O)C(=O)O)C(=O)[O-])CCN(CC(=O)[O-])CCN(C(CCC(=O)N[C@@H](CCCCNC(=O)CCCc2ccc(I)cc2)C(=O)O)C(=O)[O-])CC1.[111In+3] (some centres unmarked) [[^111In]In-PSMA-DA1]	% ID	0.05

Next:
q: Request the reported Stomach (% ID) associated with O=C([O-])CN(CCN(CCc1ccc(NC(=O)[C@H](CCCCNC(=O)CCC(=O)NCCCC[C@H](NC(=O)N[C@@H](CCC(=O)O)C(=O)O)C(=O)O)NC(=O)CCCc2ccc(I)cc2)cc1)CCN(CC(=O)[O-])Cc1cccc(C(=O)[O-])n1)Cc1cccc(C(=O)[O-])n1.[111In+3] [[^111In]In-Neunpa-2]
a: 0.02

###

system: LNCaP tumor-transplanted mouse; assay: Internal radioactivity distribution using LNCaP tumor-transplanted mouse; assay type: in vivo; details: 192 h after administration
Consider the following compounds; for each one, report its Spleen.
One number for each entry, in % ID/g.

Some solved entries appear below for comparison.
compound	systemName	Spleen / % ID/g
O=C([O-])CN(CCN(CCc1ccc(NC(=O)[C@H](CCCCNC(=O)CCC(=O)NCCCC[C@H](NC(=O)N[C@@H](CCC(=O)O)C(=O)O)C(=O)O)NC(=O)CCCc2ccc(I)cc2)cc1)CCN(CC(=O)[O-])Cc1cccc(C(=O)[O-])n1)Cc1cccc(C(=O)[O-])n1.[111In+3] [[^111In]In-Neunpa-2]	LNCaP tumor-transplanted mouse	0.88
O=C([O-])CN1CCN(C(CCC(=O)NCCCC[C@H](NC(=O)N[C@@H](CCC(=O)O)C(=O)O)C(=O)O)C(=O)[O-])CCN(CC(=O)[O-])CCN(C(CCC(=O)N[C@@H](CCCCNC(=O)CCCc2ccc(I)cc2)C(=O)O)C(=O)[O-])CC1.[111In+3] (some centres unmarked) [[^111In]In-PSMA-DA1]	LNCaP tumor-transplanted mouse	2.69
O=C([O-])CN(Cc1cccc(C(=O)[O-])n1)C[C@H](Cc1ccc(NC(=O)[C@H](CCCCNC(=O)CCC(=O)NCCCC[C@H](NC(=O)N[C@@H](CCC(=O)O)C(=O)O)C(=O)O)NC(=O)COCCOCCOCC(=O)N[C@@H](CCCCNC(=O)CCCc2ccc(I)cc2)C(=O)O)cc1)N(CC(=O)[O-])Cc1cccc(C(=O)[O-])n1.[111In+3] [[^111In]In-Octapa-3]	LNCaP tumor-transplanted mouse	0.31
O=C([O-])CN(Cc1cccc(C(=O)[O-])n1)C[C@H](Cc1ccc(NC(=O)CCCCCNC(=O)CCC(=O)NCCCC[C@H](NC(=O)N[C@@H](CCC(=O)O)C(=O)O)C(=O)O)cc1)N(CC(=O)[O-])Cc1cccc(C(=O)[O-])n1.[111In+3] [[^111In]In-Octapa-1, reference compound]	LNCaP tumor-transplanted mouse	0.85
O=C(O)CC[C@H](NC(=O)N[C@@H](CCCCNC(=O)[C@H](Cc1ccc2ccccc2c1)NC(=O)[C@H]1CC[C@H](CNC(=O)CCC(C(=O)O)N2CCN(CC(=O)O)CCN(C(CCC(=O)N[C@@H](CCCCNC(=O)CCCc3ccc(I)cc3)C(=O)O)C(=O)O)CCN(CC(=O)O)CC2)CC1)C(=O)O)C(=O)O (some centres unmarked) [[^111In]In-PSMA-NAT-DA1, metal not drawn]	LNCaP tumor-transplanted mouse	3.77
O=C([O-])CN(CCN(CCc1ccc(NC(=O)CCCCCNC(=O)CCC(=O)NCCCC[C@H](NC(=O)N[C@@H](CCC(=O)O)C(=O)O)C(=O)O)cc1)CCN(CC(=O)[O-])Cc1cccc(C(=O)[O-])n1)Cc1cccc(C(=O)[O-])n1.[111In+3] [[^111In]In-Neunpa-1, reference compound]	LNCaP tumor-transplanted mouse	1.05

# per-item lookup of Spleen; items listed below
1. O=C([O-])CN(Cc1cccc(C(=O)[O-])n1)C[C@H](Cc1ccc(NC(=O)[C@H](CCCCNC(=O)CCC(=O)NCCCC[C@H](NC(=O)N[C@@H](CCC(=O)O)C(=O)O)C(=O)O)NC(=O)CCCc2ccc(I)cc2)cc1)N(CC(=O)[O-])Cc1cccc(C(=O)[O-])n1.[111In+3] [[^111In]In-Octapa-2]
2. O=C([O-])CN1CCN(C(CCC(=O)NCCCC[C@H](NC(=O)N[C@@H](CCC(=O)O)C(=O)O)C(=O)O)C(=O)[O-])CCN(CC(=O)[O-])CCN(C(CCC(=O)Nc2ccccc2)C(=O)[O-])CC1.[111In+3] (some centres unmarked) [[^111In]In-PSMA-DB, reference compound]

a:
1. 0.44
2. 3.46

###

tested on: LNCaP tumor-transplanted mouse; assay: Internal radioactivity distribution using LNCaP tumor-transplanted mouse; assay type: in vivo; conditions: 48 h after administration
Assignment: determine reported Intestine for the given compounds.
Numbers only, in % ID/g.

These recorded examples may help you get a feel for the data.
compound	unitTag	Intestine
O=C([O-])CN1CCN(C(CCC(=O)NCCCC[C@H](NC(=O)N[C@@H](CCC(=O)O)C(=O)O)C(=O)O)C(=O)[O-])CCN(CC(=O)[O-])CCN(C(CCC(=O)N[C@@H](CCCCNC(=O)CCCc2ccc(I)cc2)C(=O)O)C(=O)[O-])CC1.[111In+3] (stereo partly drawn) [[^111In]In-PSMA-DA1]	% ID/g	0.96
O=C([O-])CN(Cc1cccc(C(=O)[O-])n1)C[C@H](Cc1ccc(NC(=O)CCCCCNC(=O)CCC(=O)NCCCC[C@H](NC(=O)N[C@@H](CCC(=O)O)C(=O)O)C(=O)O)cc1)N(CC(=O)[O-])Cc1cccc(C(=O)[O-])n1.[111In+3] [[^111In]In-Octapa-1, reference compound]	% ID/g	0.52

Now for a further compound.
q: Quick one: Intestine for O=C(O)CC[C@H](NC(=O)N[C@@H](CCCCNC(=O)[C@H](Cc1ccc2ccccc2c1)NC(=O)[C@H]1CC[C@H](CNC(=O)CCC(C(=O)O)N2CCN(CC(=O)O)CCN(C(CCC(=O)N[C@@H](CCCCNC(=O)CCCc3ccc(I)cc3)C(=O)O)C(=O)O)CCN(CC(=O)O)CC2)CC1)C(=O)O)C(=O)O (stereo partly drawn) [[^111In]In-PSMA-NAT-DA1, metal not drawn] ?
a: 1.39
